assay: physchem; conditions: pH 6
measurement.label: solubility (µg/mL)
Reply numerically in µg/mL, unit not repeated.

>>> measurement("NC(=O)c1sc(N2CCOCC2)cc1OCCc1ccc(OC(F)(F)F)cc1")
1

Shifting focus to the compound that follows.
Qu. So what does the record say about solubility for NC(=O)c1cc(N2CCOCC2)ccc1OCCc1ccccc1 [Compound 55, 5-Morpholino-2-(2-phenylethoxy)benzamide] ?
Ans. 300

---

conditions: mouse, microsomes
Mark 1 only for CL mouse MEAN values smaller than 4 mL/min/g; exact matches and larger values are 0.

Qu. Lab note: confirm whether the reported CL mouse MEAN for this molecule is below 4 mL/min/g, equality not counting. molecule: CON(C)C(=O)c1sc(N2CCOCC2)cc1OCCc1ccccc1
Ans. 1

Qu. Decide: CL mouse MEAN of COc1ccccc1CCOc1cc(N2CCOCC2)sc1C(N)=O strictly below 4 mL/min/g?
Ans. 0

---

Item-by-item account of Papp A→B
assay: in vitro; details: dog, MDCK-MDR1
Give the quantity in ×10⁻⁶ cm/s, number only.

Qu. Look up Papp A→B: CC1(COc2cc(N3CCOCC3)sc2C(N)=O)COC1
Ans. 19

Qu. Which Papp A→B value belongs to NC(=O)c1sc(CN2CCOCC2)cc1OCCc1ccccc1 ?
Ans. 62

Qu. What Papp A→B value was documented for this compound, NC(=O)c1cc(N2CCOCC2)ccc1OCCc1cccc(F)c1 ?
Ans. 51

Qu. # input compound: NC(=O)c1sc(N2CCOCC2)cc1OCCc1ccccc1 ; wanted: its Papp A→B
Ans. 45

Qu. Consider the compound shown here: NC(=O)c1sc(N2CCOCC2)cc1OCCc1ccc(OC(F)(F)F)cc1 What is its recorded Papp A→B?
Ans. 25

Qu. Using the record for COCCc1ccc(OCC(O)CNC(C)C)cc1 (stereo not drawn) [Metoprolol, reference compound] , report its Papp A→B.
Ans. 55

---

conditions: female, CD1, mouse, pH 7.4
Binary call on Cli mouse: 1.0 from 6 mL.min^–1.g^–1 upward, 0.0 beneath that.

>>> cat("NC(=O)c1sc(N2CCOCC2)cc1OCC(O)c1ccccc1 (stereo not shown) [Compound 51]")
0.0
>>> cat("NC(=O)c1sc(N2CCOCC2)cc1OCCc1ccc(OC(F)(F)F)cc1 [Compound 37]")
1.0
>>> cat("CCOC(=O)NC(=O)c1sc(N2CCOCC2)cc1OCCc1ccccc1 [Compound 26]")
0.0

Qu. Quick check, Cli mouse >= 6 mL.min^–1.g^–1? O=C(NC1CCC1)c1sc(N2CCOCC2)cc1OCCc1ccccc1 [Compound 24]
Ans. 0.0

Qu. In plain terms: is recorded Cli mouse at least 6 mL.min^–1.g^–1 for NC(=O)c1sc(N2CCOCC2)cc1OCCc1ccncc1 [Compound 43] ?
Ans. 1.0

Qu. Quick check: does NC(=O)c1sc(N2CCOCC2)cc1OCCc1ccccc1F [Compound 38] have Cli mouse greater than or equal to 6 mL.min^–1.g^–1?
Ans. 1.0

---

experiment: physchem; conditions: aqueous with cosolvent or surfactant or cyclodextrin, kinetic from dmso stock
measurement.label: solubility kinetic (µM)
Report as a plain number; the unit µM is understood.

Take a look at these entries with their results.
>>> measurement("O=C(NCC(F)(F)F)c1sc(N2CCOCC2)cc1OCCc1ccccc1")
67
>>> measurement("NC(=O)c1sc(N2CCOCC2)cc1OCCc1cccc(F)c1")
219
>>> measurement("O=C(NC1CCC1)c1sc(N2CCOCC2)cc1OCCc1ccccc1")
175
>>> measurement("c1ccc(CCOc2csc(N3CCOCC3)c2)cc1")
174
>>> measurement("CCOC(=O)NC(=O)c1sc(N2CCOCC2)cc1OCCc1ccccc1")
65.8

Qu. // lookup solubility kinetic for NC(=O)c1sc(N2CCOCC2=O)cc1OCCc1ccccc1
Ans. 79

Qu. Query: solubility kinetic; subject: NC(=O)c1sc(-c2ccncc2)cc1OCCc1ccccc1
Ans. 219

Qu. Look up solubility kinetic: NC(=O)c1sc(-n2nccn2)cc1OCCc1ccccc1
Ans. 78.5

Qu. Query: solubility kinetic; subject: NC(=O)c1sc(N2CCCCC2)cc1OCCc1ccccc1
Ans. 78.5

Qu. Fill blank: measured solubility kinetic of the compound NC(=O)c1sc(-n2cnc3ccccc32)cc1OCCc1ccccc1 is ____.
Ans. 27.5

---

test: physchem; details: pH 2
# solubility per entry
The reply should be a number in µg/mL, with the unit left off.

>>> measurement("NC(=O)c1cc(N2CCOCC2)ccc1OCCc1ccccc1 [Compound 55, 5-Morpholino-2-(2-phenylethoxy)benzamide]")
600
>>> measurement("NC(=O)c1sc(CN2CCOCC2)cc1OCCc1ccccc1 [Compound 18]")
700
>>> measurement("NC(=O)c1sc(N2CCOCC2)cc1OCCc1ccc(OC(F)(F)F)cc1 [Compound 37]")
2

Alright, here's another compound for you.
Qu. Bench note: what solubility did CC(=O)c1sc(N2CCOCC2)cc1OCCc1ccccc1 [Compound 20] show?
Ans. 600

---

test system: M. tuberculosis H37Rv; test: microbe, parasite or virus in culture; type: cell-based, Mycobacterium tuberculosis
measurement.label: antitubercular whole cell activity (in words)

>>> measurement("CCOC(=O)NC(=O)c1sc(N2CCOCC2)cc1OCCc1ccccc1 [Compound 26]")
"inactive"
>>> measurement("NC(=O)c1sc(-n2cnc3ccccc32)cc1OCCc1ccccc1 [Compound 33]")
"inactive"

---

assay: physchem; conditions: pH 2.4
measurement.label: solubility
Provide a numeric answer, followed by its unit.

>>> measurement("NC(=O)c1sc(CN2CCOCC2)cc1OCCc1ccccc1")
"1700 µg/mL"
>>> measurement("NC(=O)c1cc(N2CCOCC2)ccc1OCCc1ccccc1 [Compound 55, 5-Morpholino-2-(2-phenylethoxy)benzamide]")
"1300 µg/mL"

Below: the item to evaluate.
Qu. Sample CC(=O)c1sc(N2CCOCC2)cc1OCCc1ccccc1 — what was its solubility?
Ans. 400 µg/mL

---

// values below are reported in vitro mouse Clint
settings: mouse, microsomes
Report as a plain number; the unit mL/min/g is understood.

Worked cases, in vitro mouse Clint given:
>>> measurement("NC(=O)c1cc(N2CCOCC2)ccc1OCCc1ccccc1 [Compound 55, 5-Morpholino-2-(2-phenylethoxy)benzamide]")
4
>>> measurement("NC(=O)c1sc(N2CCOCC2)cc1OCCc1ccc(OC(F)(F)F)cc1 [Compound 37]")
8
>>> measurement("NC(=O)c1sc(N2CCOCC2)cc1OCCc1ccccc1 [Compound 1]")
19

// switching to the query molecule
Qu. Requested field: in vitro mouse Clint. Item: CC1(COc2cc(N3CCOCC3)sc2C(N)=O)COC1 [Compound 46]
Ans. 2.1

---

conditions: mouse, microsomes
measurement.label: CL mouse MEAN
Returns: string containing the number followed by the unit.

>>> measurement("O=C(NC1CCC1)c1sc(N2CCOCC2)cc1OCCc1ccccc1")
"0.5 mL/min/g"
>>> measurement("COc1ccc(CCOc2cc(N3CCOCC3)sc2C(N)=O)cc1")
"5.742 mL/min/g"
>>> measurement("NC(=O)c1sc(-c2ccncc2)cc1OCCc1ccccc1")
"40.84 mL/min/g"
>>> measurement("c1ccc(CCOc2csc(N3CCOCC3)c2)cc1")
"37.17 mL/min/g"
>>> measurement("O=C(NCC(F)(F)F)c1sc(N2CCOCC2)cc1OCCc1ccccc1")
"30.19 mL/min/g"

Qu. Need CL mouse MEAN of NC(=O)c1sc(N2CCOCC2)cc1CCCc1ccccc1 , thanks.
Ans. 20.17 mL/min/g

Qu. Endpoint output: CL mouse MEAN of NC(=O)c1sc(N2CCOCC2)cc1OCCc1ccccc1 . Value?
Ans. 18.63 mL/min/g

Qu. Any idea what CL mouse MEAN was measured for COc1cccc(CCOc2cc(N3CCOCC3)sc2C(N)=O)c1 ?
Ans. 10.31 mL/min/g

Qu. # query: CL mouse MEAN of entry O=C(NO)c1sc(N2CCOCC2)cc1OCCc1ccccc1
Ans. 6.073 mL/min/g

Qu. For the molecule shown here, NC(=O)c1sc(N2CCOCC2)cc1OCCc1ccc(OC(F)(F)F)cc1 , give the reported CL mouse MEAN.
Ans. 8.159 mL/min/g

---

assay: physchem; details: pH 7.4
solubility values by entry
Please reply with the bare figure in µg/mL and do not write the unit itself.

Answered examples (3):
>>> measurement("CC(=O)c1sc(N2CCOCC2)cc1OCCc1ccccc1 [Compound 20]")
30
>>> measurement("NC(=O)c1cc(N2CCOCC2)ccc1OCCc1ccccc1 [Compound 55, 5-Morpholino-2-(2-phenylethoxy)benzamide]")
300
>>> measurement("NC(=O)c1sc(N2CCOCC2)cc1OCCc1ccc(OC(F)(F)F)cc1 [Compound 37]")
1

Qu. Fill in: solubility of NC(=O)c1sc(CN2CCOCC2)cc1OCCc1ccccc1 [Compound 18] is ___
Ans. 300
